Listed molecules paired with reported AUC(0-t) at 8 h
# assay_info: AUC (0 to 8 hrs) in ICR mouse at 14.1 mg/kg, po
# Type: ADME, organism-based
# Set-up: time < 8 hr, dose 14.1 mg/kg, route oral
# run_conditions: plasma
Form entry: value (ng·h/mL) — number only.

// AUC(0-t) at 8 h lookup, key: Cn1cc(-c2cnc3nnn(Cc4ccc5nccn5c4)c3n2)cn1 1070

// AUC(0-t) at 8 h lookup, key: C[C@@H](c1ccc2nccn2c1)n1nnc2ncc(-c3cnn(C)c3)nc21 5590

// AUC(0-t) at 8 h lookup, key: OCCn1cc(-c2cnc3nnn(Cc4ccn5nccc5c4)c3n2)cn1 7000
